Test system: 485176-168-R4-J1-PDC spheroids with HUVEC/MSC, viability;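 note: spheroids exposed to compounds for seven days before readout; percent viability relative to DMSO vehicle control wells as 100%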
measurement_description: Anticancer human tumor 485176-168-R4-J1-PDC patient-derived pancreatic adenocarcinoma cell line growth inhibition [GQUAD]
conditions: second compound 0.1 µM; first compound 0.0316 µM; stronger effect = lower value
measurement_label: viability, T/C

Field: example entries. Status: answers known.
>  <compound>
O=C(NO)c1cnc(N2CCN(S(=O)(=O)c3ccc4ccccc4c3)CC2)nc1 + Cc1cnc(CNC(=O)c2c(=O)c3ccc(N4CCCN(C)CC4)nc3n3c2sc2ccccc23)cn1

>  <readout_value>
66.3%

$$$$
>  <compound>
Cc1[nH]c2ccccc2c1CCNCc1ccc(/C=C/C(=O)NO)cc1 + CN(C)c1ccc(Nc2c3ccc(NC(=O)CCN4CCCC4)cc3nc3cc(NC(=O)CCN4CCCC4)ccc23)cc1

>  <readout_value>
86.1%

$$$$
>  <compound>
COc1cccc2c1C(=O)c1c(O)c3c(c(O)c1C2=O)CC(O)(C(=O)CO)CC3OC1CC(N)C(O)C(C)O1 (stereo not given) + CN(C)c1ccc(Nc2c3ccc(NC(=O)CCN4CCCC4)cc3nc3cc(NC(=O)CCN4CCCC4)ccc23)cc1

>  <readout_value>
95.2%

$$$$
>  <compound>
O=c1[nH]cc(F)c(=O)[nH]1 + CN(C)c1ccc(Nc2c3ccc(NC(=O)CCN4CCCC4)cc3nc3cc(NC(=O)CCN4CCCC4)ccc23)cc1

>  <readout_value>
102%

$$$$

Alright, here's another compound for you.
# viability, T/C measured on 485176-168-R4-J1-PDC spheroids with HUVEC/MSC, viability for item CC1COCCN1c1cc(C2(O)CC3CCC(C2)O3)c2cnn(-c3ccn[nH]3)c2n1 (stereo not given) + Cc1cnc(CNC(=O)c2c(=O)c3ccc(N4CCCN(C)CC4)nc3n3c2sc2ccccc23)cn1 = 22.6%

Numbers sourced from PubChem BioAssay AID2060509.
